# Remaining Percentage (%) 8 h per record follows
assay.overview: Test 4: stability of compounds in human liver microsomes
Format: in vitro ADME
run.conditions: 8 h; 0.5 mg/mL liver microsomal protein, 1 mM NADPH, 37° C., N=1
Return type: number; implicit unit %.

Answered cases to consult:
compound: [2H]C([2H])([2H])N(CCN(C)c1cc(OC)c(Nc2nccc(-c3cn(C([2H])([2H])[2H])c4ccccc34)n2)cc1NC(=O)C=C)C([2H])([2H])[2H]
measured.number: 92
//
compound: C=CC(=O)Nc1cc(Nc2nccc(-c3cn(C)c4ccccc34)n2)c(OC)cc1N(C)CCN(C)C.CS(=O)(=O)O [AZD9291, reference compound]
measured.number: 82

Read the next record carefully.
Output measured Remaining Percentage (%) 8 h for this item: [2H]C([2H])([2H])N(CCN(C)C)c1cc(OC)c(Nc2nccc(-c3cn(C)c4ccccc34)n2)cc1NC(=O)C=C
91

###

# Remaining Percentage (%) 8 h per record follows
assay.overview: Test 4: stability of compounds in human liver microsomes
Assay type: in vitro ADME
run.conditions: 8 h; 0.5 mg/mL liver microsomal protein, 1 mM NADPH, 37° C., N=1
Return type: number; implicit unit %.

Answered cases to consult:
structure.smiles: [2H]C([2H])([2H])Oc1cc(N(C)CCN(C)C)c(NC(=O)C=C)cc1Nc1nccc(-c2cn(C)c3ccccc23)n1
unit.spec: %
Remaining Percentage (%) 8 h: 89
//
structure.smiles: [2H]C([2H])([2H])n1cc(-c2ccnc(Nc3cc(NC(=O)C=C)c(N(C)CCN(C)C)cc3OC)n2)c2ccccc21
unit.spec: %
Remaining Percentage (%) 8 h: 90
//
structure.smiles: [2H]C([2H])([2H])N(C)CCN(C)c1cc(OC)c(Nc2nccc(-c3cn(C)c4ccccc34)n2)cc1NC(=O)C=C
unit.spec: %
Remaining Percentage (%) 8 h: 93

Read the next record carefully.
Output measured Remaining Percentage (%) 8 h for this item: [2H]C([2H])([2H])N(CCN(C)c1cc(OC)c(Nc2nccc(-c3cn(C)c4ccccc34)n2)cc1NC(=O)C=C)C([2H])([2H])[2H]
97
